Biological target: T1, TNFR1 (Homo sapiens, UniProt P19438)
T1 chain: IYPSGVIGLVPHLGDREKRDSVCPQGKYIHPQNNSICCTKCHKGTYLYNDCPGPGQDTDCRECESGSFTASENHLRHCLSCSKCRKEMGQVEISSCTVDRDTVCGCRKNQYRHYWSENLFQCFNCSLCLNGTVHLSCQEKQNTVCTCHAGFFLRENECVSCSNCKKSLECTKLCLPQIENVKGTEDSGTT
Experiment: yeast display SC50
outcomeMeasure: apparent Kd (screen) (nM)

Consider the worked cases shown below.
E18Y (designed binder) MTLQELLREEALRRAEAYAFRYALELLAEKFPEQKEYLLDLAEEIESQIRSLSGVDVEDVRKFLDKEWAWVKELLAEHPAELAEVEAARAARLAELRAEVEAKVAA
0.539
L82C (designed binder) MTLQELLREEALRRAEAEAFRYALELLAEKFPEQKEYLLDLAEEIESQIRSLSGVDVEDVRKFLDKEWAWVKELLAEHPAECAEVEAARAARLAELRAEVEAKVAA
0.593

(A) L39F (designed binder) MTLQELLREEALRRAEAEAFRYALELLAEKFPEQKEYLFDLAEEIESQIRSLSGVDVEDVRKFLDKEWAWVKELLAEHPAELAEVEAARAARLAELRAEVEAKVAA
(B) E58F (designed binder) MTLQELLREEALRRAEAEAFRYALELLAEKFPEQKEYLLDLAEEIESQIRSLSGVDVFDVRKFLDKEWAWVKELLAEHPAELAEVEAARAARLAELRAEVEAKVAA
Form field 'greater apparent Kd (screen)' accepts A or B ; which applies? Please respond with the label that marks your chosen entry. B
